Target: T1, recombinant C-terminally truncated RSV (A2 strain) F protein (RSV (A2 strain), UniProt P03420 26-524)
T1 construct: extracellular domain; also called truncated F protein; extracellular domain of the F protein from RSV A2
T1 sequence (P03420 26-109, chain 1 of 2): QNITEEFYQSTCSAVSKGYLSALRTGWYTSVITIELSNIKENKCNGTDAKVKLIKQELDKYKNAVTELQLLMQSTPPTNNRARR
T1 sequence (P03420 137-524, chain 2 of 2): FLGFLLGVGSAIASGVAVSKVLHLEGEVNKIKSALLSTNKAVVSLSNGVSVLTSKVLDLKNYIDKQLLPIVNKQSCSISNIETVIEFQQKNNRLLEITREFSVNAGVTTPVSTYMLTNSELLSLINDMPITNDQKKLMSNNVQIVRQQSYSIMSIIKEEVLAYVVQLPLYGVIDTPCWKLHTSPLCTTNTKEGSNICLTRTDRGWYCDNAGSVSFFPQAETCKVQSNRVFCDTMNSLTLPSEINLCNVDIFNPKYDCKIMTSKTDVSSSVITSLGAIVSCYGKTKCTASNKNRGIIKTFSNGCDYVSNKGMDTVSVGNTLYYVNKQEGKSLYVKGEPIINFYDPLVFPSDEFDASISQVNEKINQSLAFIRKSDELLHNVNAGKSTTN
Assay: SPR (BIAcore), Fab over immobilised F
Metric: koff (s⁻¹)
Write the number in s⁻¹ without appending the unit.

Would you please look over these solved cases?
Binder	Metric	Result unit	Obs value
G93F Fab (Fab, name in Kabat numbering, V domains shown) VH: QVTLRESGPALVKPTQTLTLTCTFSGFSLSTSGMSVGWIRQPPGKALEWLADIWWDDKKDYNPSLKSRLTISKDTSKNQVVLKVTNMDPADTATYYCARSMITNWYFDVWGQGTTVTVSS VL: DIQMTQSPSTLSASVGDRVTITCSASSSVGYMHWYQQKPGKAPKLLIYDTSKLASGVPSRFSGSGSGTEFTLTISSLQPDDFATYYCFQGSFYPFTFGGGTKVEIK	koff	s⁻¹	0.000174
G93W Fab (Fab, name in Kabat numbering, V domains shown) VH: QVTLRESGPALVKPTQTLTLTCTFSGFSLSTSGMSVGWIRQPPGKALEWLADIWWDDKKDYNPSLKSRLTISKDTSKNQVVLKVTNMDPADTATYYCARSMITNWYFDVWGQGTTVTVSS VL: DIQMTQSPSTLSASVGDRVTITCSASSSVGYMHWYQQKPGKAPKLLIYDTSKLASGVPSRFSGSGSGTEFTLTISSLQPDDFATYYCFQGSWYPFTFGGGTKVEIK	koff	s⁻¹	0.00014
S52Y Fab (Fab, name in Kabat numbering, V domains shown) VH: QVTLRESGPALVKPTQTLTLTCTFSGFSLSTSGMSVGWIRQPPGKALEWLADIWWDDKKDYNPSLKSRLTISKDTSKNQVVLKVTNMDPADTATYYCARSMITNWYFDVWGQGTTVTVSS VL: DIQMTQSPSTLSASVGDRVTITCSASSSVGYMHWYQQKPGKAPKLLIYDTYKLASGVPSRFSGSGSGTEFTLTISSLQPDDFATYYCFQGSGYPFTFGGGTKVEIK	koff	s⁻¹	0.000125
1X-493L1FR Fab (Fab, V domains shown, also called IX-493L1FR) VH: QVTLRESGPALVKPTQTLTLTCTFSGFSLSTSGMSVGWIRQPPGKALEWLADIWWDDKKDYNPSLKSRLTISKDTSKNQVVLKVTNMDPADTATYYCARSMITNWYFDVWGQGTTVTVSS VL: DIQMTQSPSTLSASVGDRVTITCSASSSVGYMHWYQQKPGKAPKLLIYDTSKLASGVPSRFSGSGSGTEFTLTISSLQPDDFATYYCFQGSGYPFTFGGGTKVEIK	koff	s⁻¹	0.000651
S52F Fab (Fab, name in Kabat numbering, V domains shown) VH: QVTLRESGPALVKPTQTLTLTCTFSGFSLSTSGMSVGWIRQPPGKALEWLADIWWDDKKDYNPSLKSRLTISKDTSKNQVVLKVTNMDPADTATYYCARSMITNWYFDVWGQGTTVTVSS VL: DIQMTQSPSTLSASVGDRVTITCSASSSVGYMHWYQQKPGKAPKLLIYDTFKLASGVPSRFSGSGSGTEFTLTISSLQPDDFATYYCFQGSGYPFTFGGGTKVEIK	koff	s⁻¹	0.000175

In plain terms, S32A Fab (Fab, name in Kabat numbering, V domains shown) VH: QVTLRESGPALVKPTQTLTLTCTFSGFSLSTAGMSVGWIRQPPGKALEWLADIWWDDKKDYNPSLKSRLTISKDTSKNQVVLKVTNMDPADTATYYCARSMITNWYFDVWGQGTTVTVSS VL: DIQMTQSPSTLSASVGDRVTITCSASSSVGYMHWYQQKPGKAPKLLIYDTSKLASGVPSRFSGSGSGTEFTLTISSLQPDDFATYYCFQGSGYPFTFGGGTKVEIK has a documented koff of 9.3e-05

In plain terms, G93Y Fab (Fab, name in Kabat numbering, V domains shown) VH: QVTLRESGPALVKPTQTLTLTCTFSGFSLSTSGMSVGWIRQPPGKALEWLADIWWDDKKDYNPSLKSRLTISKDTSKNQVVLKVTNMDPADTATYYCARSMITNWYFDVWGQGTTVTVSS VL: DIQMTQSPSTLSASVGDRVTITCSASSSVGYMHWYQQKPGKAPKLLIYDTSKLASGVPSRFSGSGSGTEFTLTISSLQPDDFATYYCFQGSYYPFTFGGGTKVEIK has a documented koff of 0.000153
